The origin of these recorded values is PubChem BioAssay AID1566.

# Experiment Description: inhibition of NOD2-driven NF-kB reporter – cell-based, luminescence, uHTS, HEK293 (AID 1566)
# Experimental Parameters: HEK293 NOD2/NF-kB luciferase reporter, at 4 µM, active compounds read high
Screen size: about 290,000 compounds; about 1,800 (0.62%) were called active. Shown is part of a subset that was picked to be rich in actives.
Please use fulfilled whenever inhibition is not below 10%, and not fulfilled whenever it is.

Please review the entries below; each comes with its answer.
- Test Smiles: "C=CCn1c(-c2cc3cccc(OC)c3o2)n[nH]c1=S"
  Category: "not fulfilled"
- Test Smiles: "C/C(=C\\C#N)n1nc(C)cc1N"
  Category: "fulfilled"
- Test Smiles: "CCCc1nc2ccccc2c(C(=O)OCC(=O)Nc2cccc(S(=O)(=O)N3CCOCC3)c2)c1CC"
  Category: "not fulfilled"
- Test Smiles: "COc1ccc(S(=O)(=O)N2CCC(N3CCN(c4ccccc4)CC3)CC2)cc1"
  Category: "fulfilled"

Now turn to the next molecule.
Problem: Entry Cc1ccc(S(=O)(=O)Nc2ccc3nc(C)sc3c2)cc1 : is its inhibition no less than 10%?
Solution: fulfilled
